Hello, the source for this data is BigSolDB 2.1, in case you need it.

- Study Conditions: in toluene, 318.15 K
Readout Kind: solubility (mole fraction)

> print(dat)
                            compound.string  reported.measurement
1  CN1CCN(c2c(F)cc3c(=O)c(C(=O)O)cn4c3c2OCN4C)CC1              0.000155

###

- Study Conditions: in isopropanol, 283.15 K
Readout Kind: solubility (mole fraction)

> print(dat)
                            compound.string                readout.kind  reported.measurement
1  CN1CCN(c2c(F)cc3c(=O)c(C(=O)O)cn4c3c2OCN4C)CC1  solubility (mole fraction)              5.13e-05
